- assay target: T1, human B7-H4 (human, UniProt Q7Z7D3 25-282)
- T1 construct: whole, on cells; also called VTCN1; SK-BR-3 cell line highly expressing B7-H4
- T1 sequence (looked up): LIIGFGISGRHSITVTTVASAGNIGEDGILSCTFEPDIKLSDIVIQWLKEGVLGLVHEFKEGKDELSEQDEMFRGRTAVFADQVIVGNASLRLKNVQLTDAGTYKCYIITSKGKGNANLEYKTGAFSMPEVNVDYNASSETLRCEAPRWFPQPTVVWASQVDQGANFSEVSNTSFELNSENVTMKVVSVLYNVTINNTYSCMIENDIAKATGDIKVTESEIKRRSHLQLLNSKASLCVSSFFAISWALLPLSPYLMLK
- measurement description: FACS, SK-BR-3 cells [A]
metric: pEC50
To interpret pEC50, take it as minus log10 of a concentration measured in moles per litre.

1. PR001476 (antibody, human IgG1, kappa, V domains shown, anti-B7-H4 H2L2 recombinant fully human antibody, human IgG1 / kappa; also called 80C8-2E9 clone) VH: QVQLVESGGGVVQPGRSLRLSCAASGFTFRSFGMHWVRQAPGKGLEWVAVISYDGSNEYYADSVKGRFIISRDNSKDTLYLQMNSLRAGDTAVYYCAKGGGLRWYFAYWGQGTLVTVSS VL: EIVMTQSPATLSVSPGERATLSCRASQSISSNLGWYQQKPGQAPRLLIYGASTRATGIPARFSGSGSGTEFTLTISSLQSEDFAVYYCQQYNSWPPLTFGGGTKVEIKR
9.44
2. PR002037 (antibody, human IgG1, kappa, V domains shown, also called 1025_B-1H11 clone) VH: QVQLVQSGAEVKKPGSSMRVSCKASEDTFSSYAISWVRQAPGQGLEWMGGTAPIFGTTNYAQKFQGRVTITADKSTSTAYMELSSLRSEDTAVYYCARGGPYFDYWGQGTLVTVSS VL: EIVMTQSPASLSVSPGERATLSCRASQSVSSNLAWYQQKPGQAPRLLIYGASTRATGIPARVSGGGSGTEFTLTISSLQSEDFAVYCCQQYKNWPFTFGPGTKLEIKR
8.65
3. control antibody 1 (PR000157) (antibody, V domains shown, also called Positive control 1; 1D11.v1.9varC2) VH: EVQLVQSGAEVKKPGASVKVSCKASGYTFTSYWIGWVRQAPGQGLEWIGDIYPGGGYTNYNEKFKGRVTITRDTSTSTAYLELSSLRSEDTAVYYCARLAGSSYRGAMDSWGQGTLVTVSS VL: DIQMTQSPSSLSASVGDRVTITCKASQGFNKYVAWYQQKPGKAPKLLIYYTSTLQPGVPSRFSGSGSGRDYTLTISSLQPEDFATYYCLQYGDLLYAFGQGTKVEIKR
8.92

Shift focus to the following entry.
Return reported pEC50; argument: PR002410 (antibody, human IgG1, kappa, V domains shown, anti-B7-H4 H2L2 recombinant fully human antibody, human IgG1 / kappa; also called PR002037 variant) VH: QVQLVQSGAEVKKPGSSMRVSCKASEDTFSSYAISWVRQAPGQGLEWMGGTAPIFGTTNYAQKFQGRVTITADKSTSTAYMELSSLRSEDTAVYYCARGGPYFDYWGQGTLVTVSS VL: EIVMTQSPASLSVSPGERATLSCRASQSVSSNLAWYQQKPGQAPRLLIYGASTRATGIPARVSGGGSGTEFTLTISSLQSEDFAVYYCQQYKNWPFTFGPGTKLEIKR
8.73
